Experiment: Logarithmic association constant determined by ethidium displacement from DNA co-polymers (G + C)
property: Log K
# output: bare number, no unit

Consider the worked cases shown below.
substance_smiles: CCN(CC)CCNC(=O)c1cccc2c(N)c3ccccc3nc12
Log K: 7.59

substance_smiles: CCNc1c2ccccc2nc2c(C(=O)NCCN(C)C)cccc12
Log K: 7.69

substance_smiles: CCCCCNc1c2ccccc2nc2c(C(=O)NCCN(C)C)cccc12
Log K: 7.58

substance_smiles: CN(C)CCNC(=O)c1cccc2c(NCCN(C)C)c3ccccc3nc12
Log K: 8.2

Q: If you can, please state the reported Log K value of CCCCCCNc1c2ccccc2nc2c(C(=O)NCCN(C)C)cccc12 .
Ans: 7.79
